subject.of.test: human p38 kinase alpha (Homo sapiens, UniProt Q16539)
Construct: GST (N, cleaved yes); made in house; host or cells: E. coli DH10B
Sequence (Q16539 whole entry): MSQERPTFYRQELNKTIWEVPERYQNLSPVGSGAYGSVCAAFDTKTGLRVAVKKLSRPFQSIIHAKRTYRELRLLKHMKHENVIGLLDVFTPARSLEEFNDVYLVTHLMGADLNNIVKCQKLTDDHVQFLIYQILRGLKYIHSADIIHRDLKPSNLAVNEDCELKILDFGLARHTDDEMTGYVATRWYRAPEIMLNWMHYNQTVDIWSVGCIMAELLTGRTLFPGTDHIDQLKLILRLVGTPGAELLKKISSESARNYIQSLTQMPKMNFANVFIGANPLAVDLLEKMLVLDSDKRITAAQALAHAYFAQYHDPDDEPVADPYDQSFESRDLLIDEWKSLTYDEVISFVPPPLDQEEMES
experiment.summary: p38 kinase in vitro assay, phosphorylation of biotinylated PHAS-I with 32P-ATP
Type: biochemical
recorded.conditions: in vitro P38-alpha kinase inhibition; read-out: P38 alpha kinase IC50
parameter: IC50 (µM)

Worked examples, 4 compounds total:
compound	readout.number
CC(NC(=O)c1cccnc1)c1[nH]nc(-c2ccc(F)cc2)c1-c1ccncc1 (stereo not shown) [Example B-0554]	2.58
Cc1ccccc1C(=O)NC(C)c1[nH]nc(-c2ccc(F)cc2)c1-c1ccncc1 (stereo not shown) [Example B-0669]	0.89
CC(NC(=O)NC(Cc1ccccc1)c1[nH]nc(-c2ccc(F)cc2)c1-c1ccncc1)c1ccccc1 (stereo not shown) [Example B-0781]	48
O=S(=O)(NCCc1[nH]nc(-c2ccc(F)cc2)c1-c1ccncc1)c1cc(Cl)cc(Cl)c1 [Example B-1092]	0.27

I: CC(C)NC(=O)NC(Cc1ccccc1)c1[nH]nc(-c2ccc(F)cc2)c1-c1ccncc1 (stereo not shown) [Example B-0723]
II: CC(NC(=O)NC(Cc1ccccc1)c1[nH]nc(-c2ccc(F)cc2)c1-c1ccncc1)c1ccccc1 (stereo not shown) [Example B-0784]
Compare reported IC50 values for I and II . Which is lower? Return value: the label identifying the chosen record.
I
(I: 0.47 µM, II: 7 µM)
